pKi: −log10 of the molar value.
Literature survey of pKi (system: UniProt:Q9Y5N1).
Entry flag: label 1 if pKi reaches 8; label 0 if it does not.

- CCN1CCC(COc2ccc3c(c2)CN(C)CC3c2ccc(OC)cc2)CC1 (stereo not drawn): label 1
- COc1cccc(C2CN(C)Cc3cc(OCCCN4CCC(F)CC4)ccc32)c1 (racemic): label 1
- COc1ccc(C2CN(C)Cc3cc(OCCCN4CCCC4C)ccc32)cc1 (stereo not drawn): label 1
- CCN(CC)CCC1CCN(c2ccc(CN3CCCCC3)cc2)C1 (stereo not drawn): label 1
- COc1ccc(C2CN(C)Cc3cc(OCCCN4CCN(C(=O)C5CC5)CC4)ccc32)cc1 (stereo not drawn): label 0
- Cc1cccn2cc(-c3ccc(OCC(O)CN4CCN(CCc5ccccc5)CC4)cc3)nc12 (stereo not drawn): label 0
- COc1ccc(C2CN(C)Cc3cc(OCC4CCN(CC(C)C)CC4)ccc32)cc1 (stereo not drawn): label 1
- COc1ccc(C2CN(C)Cc3cc(OCCCN4CCOCC4)ccc32)cc1 (stereo not drawn): label 1
- CC(C)OCc1cc2ccccc2n1-c1ccc(OCCCN2CCCC2)cc1: label 1
- CN(C)CCC(Oc1ccc(C#CCCN2CCCCC2)cc1)c1ccccc1 (stereo not drawn): label 1
